Reference source: patent US10364216B2

# protocol summary: Sweetness adjusting action on sucrose, aspartame, sucralose, glycyrrhizin (simultaneous intake)
# Assay type: in vivo, human
# test settings: 10 mL; sucrose 7.5 wt %, aspartame 494 ppm, sucralose 0.49 mM, glycyrrhizin 303 ppm; alone or containing 5 mM trans-3-octenyl sulfate; scale 0 to 15
Residues, ends and D or L forms follow the SMILES beside them.
measured property: Sweetness intensity (mean) When drinking sample
Form: value (number only, do not type unit).

CC1(C)[C@@H](O[C@H]2O[C@H](C(=O)O)[C@@H](O)[C@H](O)[C@H]2O[C@@H]2O[C@H](C(=O)O)[C@@H](O)[C@H](O)[C@H]2O)CC[C@]2(C)[C@H]3C(=O)C=C4[C@@H]5C[C@@](C)(C(=O)O)CC[C@]5(C)CC[C@@]4(C)[C@]3(C)CC[C@@H]12 [Glycyrrhizin, glycyrrhizin] : 4.1

Data request: Which Sweetness intensity (mean) When drinking sample value belongs to OC[C@H]1O[C@@](CO)(O[C@H]2O[C@H](CO)[C@@H](O)[C@H](O)[C@H]2O)[C@@H](O)[C@@H]1O [Sucrose, sucrose] ?
Data returned: 7.1

Data request: Which Sweetness intensity (mean) When drinking sample value belongs to COC(=O)[C@H](Cc1ccccc1)NC(=O)[C@@H](N)CC(=O)O [Aspartame, aspartame] (H-Asp-Phe-OMe) ?
Data returned: 7.1

Data request: Which Sweetness intensity (mean) When drinking sample value belongs to OC[C@H]1O[C@H](O[C@]2(CCl)O[C@H](CCl)[C@@H](O)[C@@H]2O)[C@H](O)[C@@H](O)[C@H]1Cl [Sucralose, sucralose] ?
Data returned: 8.4
